target.entity: T1, MAGE-A4 peptide on HLA-A*02:01 (human)
T1 peptide: KVLEHVVRV
test.protocol: multimer staining
value.kind: binding result

Could you please provide reported binding result for PN41867 (TCR, V domains shown, stained with anti-mouse TCR constant region H57-597; full-length chains on transfected CHO cells; also called TCR No. 36) V domain 1: AQTVTQSQPEMSVQEAETVTLSCTYDTSENNYYLFWYKQPPSRQMILVIRQEAYKQQNATENRFSVNFQKAAKSFSLKISDSQLGDTAMYFCAFMKTQGGSEKLVFGKGTKLTVNP V domain 2: AAGVIQSPRHLIKEKRETATLKCYPIPRHDTVYWYQQGPGQDPQFLISFYEKMQSDKGSIPDRFSAQQFSDYHSELNMSSLELGDSALYFCASSLVGYGYTFGSGTRLTVV ? Thanks!
recognises

Could you please provide reported binding result for PN41559 (TCR, V domains shown, stained with anti-mouse TCR constant region H57-597; full-length chains on transfected CHO cells; also called TCR No. 12) V domain 1: AQTVTQSQPEMSVQEAETVTLSCTYDTSESDYYLFWYKQPPSRQMILVIRQEAYKQQNATENRFSVNFQKAAKSFSLKISDSQLGDAAMYFCAYRSATGNQFYFGTGTSLTVIP V domain 2: DVKVTQSSRYLVKRTGEKVFLECVQDMDHENMFWYRQDPGLGLRLIYFSYDVKMKEKGDIPEGYSVSREKKERFSLILESASTNQTSMYLCASSLWGWGTEAFFGQGTRLTVV ? Thanks!
recognises
